assay: Concentration (30 mg/kg, p.o.) in rat hypothalamus after 2 hours; assay type: ADME, organism-based; conditions: hypothalamus, po
The following compounds are listed with their measured concentration at 2 h values.
Report as a plain number; the unit ng/g is understood.

INSERT INTO assay_data (smiles, measurement_label, numeric_readout) VALUES
  ('O=C(CN1CCCCC1)N1CCC(CNc2nc3c(s2)CCCc2ccc(F)cc2-3)CC1', 'concentration at 2 h', 1170),
  ('Cc1ccc2c(c1)-c1nc(NCC3CCN(C(=O)[C@H]4CCCO4)CC3)sc1CCO2', 'concentration at 2 h', 1460),
  ('O=C([C@@H]1CCCO1)N1CCC(CNc2nc3c(s2)CCCc2ccc(F)cc2-3)CC1', 'concentration at 2 h', 6690);

Identify measured concentration at 2 h associated with `O=C([C@@H]1CCCO1)N1CCC(CNc2nc3c(s2)CCOc2ccc(F)cc2-3)CC1`
5480
